- System: 287954-098-R-J1 tumor spheroid viability;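 further: spheroids exposed to compound for 7 days before viability readout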
- experiment summary: Anticancer human tumor 287954-098-R-J1 patient-derived Ewing sarcoma cell line growth inhibition
- condition info: curve of first compound; second compound 1 µM; spheroids with HUVEC and MSC
- Experimental: Multicellular complex tumor spheroid response to DNA repair inhibitors in combination with DNA-damaging drugs This study explores the anticancer activities of DNA-damaging drugs and inhibitors of DNA damage repair, both as single agents and in combinations. […] Twenty-six patient-derived or established malignant cell lines were evaluated representing sarcoma, melanoma, small cell lung cancer (SCLC), non-small cell lung cancer (NSCLC), as well as bladder, ovarian and pancreatic cancers. […]
endpoint: IC50

| compound | val |
| --- | --- |
| COc1cc(C)[nH]c(=O)c1CN1CCc2c(Cl)cc(C(OC)C3COC3)c(Cl)c2C1=O (centres undefined) + Cn1nnc2c(C(N)=O)ncn2c1=O | > 10 µM |
| [2H]c1nc(C)nc([2H])c1-c1cc(NC[C@@H](C)c2cccc3c(C(=O)NC)ccnc23)ncn1 + Cn1nnc2c(C(N)=O)ncn2c1=O | > 10 µM |
| COc1ccc([C@@H](O)c2cc(-c3ncnc4cc(N5CCOCC5)ccc34)c(F)cc2Cl)nn1 + Cn1nnc2c(C(N)=O)ncn2c1=O | > 10 µM |

Continue with the next compound.
For the compound CC(C)n1c(=O)n(C)c2cnc3cc(F)c(-c4ccc(OCCCN5CCCCC5)nc4)cc3c21 + Cn1nnc2c(C(N)=O)ncn2c1=O , what IC50 is on record?
> 10 µM
